Taken from paper PMC5915741.

# SYSTEM: T1, p19 (Carnation Italian ringspot virus (CIRV), UniProt Q66104 1-172)
# T1 sequence: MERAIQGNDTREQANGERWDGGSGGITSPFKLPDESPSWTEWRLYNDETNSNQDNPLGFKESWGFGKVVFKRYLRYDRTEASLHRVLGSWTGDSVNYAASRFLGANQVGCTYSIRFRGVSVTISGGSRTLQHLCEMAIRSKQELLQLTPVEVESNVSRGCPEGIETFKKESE
# EXPERIMENT: competition EMSA; KC vs labeled gf698 siRNA, 0.5 nM p19 dimer
# DETAILS: protein: recombinant; tags: GST (pGEX-6P-1) removed by PreScission protease; chain copies: 2; miRNA duplex with mismatches, 22 nt star strand
READOUT TYPE: pKi
When answering, recall that pKi equals minus log10 of the concentration in mol/L, and write that number alone.

pKi reported for this binder AtmiR403 (dsRNA, 5' phosphate on both strands) RNA 1: UUAGAUUCACGCACAAACUCG RNA 2: UGUUUUGUGCUUGAAUCUAAUU : 8.96
